Hey, just so you know, these numbers are from patent US9695155B2.

Items are presented alongside their recorded Plant response rating, Ragweed.
# Test system: ragweed
# procedure text: Test A preemergence
# Type: in vivo, Ambrosia elatior
# run conditions: 125 g ai/ha, 0 to 100 scale where 0 is no effect and 100 is complete control
quantity: Plant response rating, Ragweed

molecule: CCCOc1cnn(-c2c(C#N)cccc2Oc2ncc(Cl)cn2)c1 [Compound 150]
recorded value: 30
--
molecule: FCc1cccc(Oc2ncc(Br)cn2)c1-n1cc(C(F)(F)F)cn1 [Compound 120]
recorded value: 0
--
molecule: N#Cc1cnn(-c2c(CF)cccc2Oc2ncc(F)cn2)c1 [Compound 151]
recorded value: 80
--
molecule: CC(C)Cc1cn(-c2c(F)cccc2Oc2ncc(Cl)cn2)nn1 [Compound 107]
recorded value: 0
--
molecule: N#Cc1cccc(Oc2ncc(F)cn2)c1-n1cc(I)cn1 [Compound 86]
recorded value: 90
--
molecule: CC(C)Oc1cnn(-c2c(Br)cccc2Oc2ncc(Cl)cn2)c1 [Compound 148]
recorded value: 0
--
molecule: FC(F)(F)COc1cnn(-c2c(Br)cccc2Oc2ncc(Cl)cn2)c1 [Compound 128]
recorded value: 0
--
molecule: N#Cc1cccc(Oc2ncc(Cl)cn2)c1-n1cc(OCC(F)F)cn1 [Compound 99]
recorded value: 90
